Test system: Carnobacterium 1 (Carnobacterium gallinarum)
Assay: relative growth (AUC of 72 h growth curve relative to DMSO control, dAUC) (ratio); higher = more growth (less inhibition), active = hit call of the paper
Conditions: 20 µM
Please go through the items and note down their relative growth.

                                   molecule            result
0  CC(COc1ccc(Oc2ccccc2)cc1)Oc1ccccn1 (stereo not given)   1.38 (inactive)
1  CC(C)N(C)S(=O)(=O)NC(=O)c1cc(-n2c(=O)cc(C(F)(F)F)n(C)c2=O)c(F)cc1Cl   1.22 (inactive)
2  CC(Oc1ccc(Oc2nc3ccc(Cl)cc3o2)cc1)C(=O)O (stereo not given)   1.36 (inactive)
3  COCC(C)N(C(=O)CCl)c1c(C)csc1C (stereo not given)  0.859 (inactive)
4    COCC(=O)N(c1c(C)cccc1C)[C@H](C)C(=O)OC   1.12 (inactive)
5          CCOP(=S)(OCC)Oc1cc(C)nc(C(C)C)n1  0.908 (inactive)
6  N#CC(CCc1ccc(Cl)cc1)(Cn1cncn1)c1ccccc1 (stereo not given)  0.805 (inactive)
7                           C[N+]1(C)CCCCC1    1.2 (inactive)
8     O=C(Nc1ccccc1-c1ccc(Cl)cc1)c1cccnc1Cl  0.968 (inactive)
9                   CCNc1nc(Cl)nc(NC(C)C)n1   1.18 (inactive)

Below are some molecules; for each one, tell me its relative growth.
1. CN/C(=N/CC1CCOC1)N[N+](=O)[O-] (stereo not given)
2. COP(N)(=O)SC (stereo not given)
3. CS(=O)(=O)c1ccc(C(=O)C2C(=O)CCCC2=O)c([N+](=O)[O-])c1
4. CN/C(=N\[N+](=O)[O-])NCc1cnc(Cl)s1
5. Clc1ccc(C(c2ccc(Cl)cc2)C(Cl)(Cl)Cl)cc1

1: 1.46 (inactive); 2: 0.69 (inactive); 3: 1.44 (inactive); 4: 0.918 (inactive); 5: 1.1 (inactive)

Below are some molecules; for each one, tell me its relative growth.
1. CCC(C)(C)C(=O)OC1=C(c2ccc(Cl)cc2Cl)C(=O)OC12CCCCC2
2. CCCCOC(=O)[C@H](C)Oc1ccc(Oc2ccc(C#N)cc2F)cc1

1.13 (inactive)
0.961 (inactive)

Below are some molecules; for each one, tell me its relative growth.
1. CC1(C)[C@H](C(=O)O[C@H](C#N)c2cccc(Oc3ccccc3)c2)[C@@H]1C=C(Br)Br
2. COc1ncc(F)c2nc(S(=O)(=O)Nc3c(F)cccc3F)nn12
3. CC1(C)C(C=C(Cl)Cl)C1C(=O)OC(C#N)c1cccc(Oc2ccccc2)c1 (stereo not given)

1: 1.47 (inactive); 2: 1.1 (inactive); 3: 1.32 (inactive)

Below are some molecules; for each one, tell me its relative growth.
1. CCc1cnc(C2=NC(C)(C(C)C)C(=O)N2)c(C(=O)O)c1 (stereo not given)
2. Cc1cc(C)nc(Nc2ccccc2)n1
3. C[N+](C)(C)CCCl
4. O=C(O)CNCP(=O)(O)O
5. CCCCc1c(C)nc(NCC)nc1OS(=O)(=O)N(C)C

1. 1.06 (inactive)
2. 1.1 (inactive)
3. 1.05 (inactive)
4. 1.13 (inactive)
5. 0.861 (inactive)

###

Test system: Hymenobacter 1 (Hymenobacter glaciei)
Test: relative growth (AUC of 72 h growth curve relative to DMSO control, dAUC) (ratio); higher = more growth (less inhibition), active = hit call of the paper
Details: 20 µM
Everything with relative growth lower than 1 is Not satisfied; everything else, including exactly 1, is Satisfied.

Observe how each entry below is paired with its result.
>>> print(df.to_string())
                                   compound          label
0  CC1COC(Cn2cncn2)(c2ccc(Oc3ccc(Cl)cc3)cc2Cl)O1 (stereo unspecified)  Not satisfied
1  O=C(Nc1ccc(F)cc1F)c1cccnc1Oc1cccc(C(F)(F)F)c1      Satisfied

Alright, here's another compound for you.
Dear colleague, could you confirm whether CC1(C)C(C=C(Cl)Cl)C1C(=O)OC(C#N)c1ccc(F)c(Oc2ccccc2)c1 (stereo unspecified) has relative growth at or above 1?
Satisfied

###

Test system: Flavobacterium 1 (Flavobacterium glaciei)
Experiment: relative growth (AUC of 72 h growth curve relative to DMSO control, dAUC) (ratio); higher = more growth (less inhibition), active = hit call of the paper
Conditions: 20 µM
READOUT_TYPE: relative growth
Answers are plain numbers.

Example entries and their recorded answers appear below.
>>> df
                           structure_smiles  result_number
0                CC1(C)CON(Cc2ccccc2Cl)C1=O           1.02
1  CC(C)NC(=O)N1CC(=O)N(c2cc(Cl)cc(Cl)c2)C1=O          0.854
2  CC(C)N(C)S(=O)(=O)NC(=O)c1cc(-n2c(=O)cc(C(F)(F)F)n(C)c2=O)c(F)cc1Cl              1
3      CCc1cccc(C)c1N(C(=O)CCl)[C@@H](C)COC          0.984

Continue with the molecule presented below.
Look up relative growth for this molecule: COc1ncc(F)c2nc(S(=O)(=O)Nc3c(F)cccc3F)nn12
1.03

###

Tested on: Pseudomonas 6 (Pseudomonas sp.)
Assay: relative growth (AUC of 72 h growth curve relative to DMSO control, dAUC) (ratio); higher = more growth (less inhibition), active = hit call of the paper
Details: 20 µM
Everything with relative growth lower than 1 is Not met; everything else, including exactly 1, is Met.

Observe how each entry below is paired with its result.
COMPOUND	LABEL
Fc1ccc(Oc2ccnc3cc(Cl)cc(Cl)c23)cc1	Met
COC(=O)N(OC)c1ccccc1COc1ccn(-c2ccc(Cl)cc2)n1	Met
CNC(=O)c1cc(Cl)cc(C)c1NC(=O)c1cc(Br)nn1-c1ncccc1Cl	Not met
CNC(=O)c1cc(C#N)cc(C)c1NC(=O)c1cc(Br)nn1-c1ncccc1Cl	Met
C[N+]1(C)CCCCC1	Met

Alright, here's another compound for you.
Dear colleague, could you confirm whether CNC(=O)ON=C(C)SC has relative growth at or above 1?
Not met

###

Test system: Community 8
Assay: relative growth (AUC of 72 h growth curve relative to DMSO control, dAUC) (ratio); higher = more growth (less inhibition), active = hit call of the paper
Conditions: 20 µM
Please go through the items and note down their relative growth.
One number for each entry.

Example entries and their recorded answers appear below.
In [3]: df
Out[3]:
                                   compound  result_number
0  CCC(C)(C)C(=O)OC1=C(c2ccc(Cl)cc2Cl)C(=O)OC12CCCCC2          0.972
1                   Cc1cc(C)nc(Nc2ccccc2)n1           1.03
2  CN/C(=N/CC1CCOC1)N[N+](=O)[O-] (stereo unspecified)           1.03

Below are some compounds; for each one, tell me its relative growth.
1. COc1ncc(F)c2nc(S(=O)(=O)Nc3c(F)cccc3F)nn12
2. COP(=S)(OC)Oc1ccc(SC)c(C)c1
3. Clc1ccc(C(c2ccc(Cl)cc2)C(Cl)(Cl)Cl)cc1
4. CC(C)(C)[C@@H](O)[C@H](Oc1ccc(Cl)cc1)n1cncn1
5. COC(=O)c1ccccc1S(=O)(=O)NC(=O)Nc1nc(C)nc(OC)n1
6. CCOCn1c(-c2ccc(Cl)cc2)c(C#N)c(Br)c1C(F)(F)F
7. O=C1c2ccccc2C(=O)N1SC(Cl)(Cl)Cl

1: 1.04; 2: 1; 3: 0.997; 4: 1.02; 5: 1.1; 6: 1.05; 7: 0.913

Look up relative growth for this compound: CC1(C)C(C=C(Cl)Cl)C1C(=O)OC(C#N)c1cccc(Oc2ccccc2)c1 (stereo unspecified)
1.08

###

Tested on: Pseudomonas 6 (Pseudomonas sp.)
Assay: relative growth (AUC of 72 h growth curve relative to DMSO control, dAUC) (ratio); higher = more growth (less inhibition), active = hit call of the paper
Details: 20 µM
Everything with relative growth lower than 1 is F; everything else, including exactly 1, is T.

Observe how each entry below is paired with its result.
>>> print(df.to_string())
                                   compound  label
0        CN/C(=N\[N+](=O)[O-])NCc1cnc(Cl)s1      T
1  CS(=O)(=O)c1cc(C(F)(F)F)ccc1C(=O)c1cnoc1C1CC1      F
2                       CCCCCCCCCCCCNC(=N)N      F
3    Clc1ccc(C(c2ccc(Cl)cc2)C(Cl)(Cl)Cl)cc1      T
4                        Oc1ccccc1-c1ccccc1      T
5     COP(=O)(NC(C)=O)SC (stereo not drawn)      T
6  COc1cc(C)c(C(=O)c2c(OC)ccc(Br)c2C)c(OC)c1OC      F
7  O=C(Nc1ccc(F)cc1F)c1cccnc1Oc1cccc(C(F)(F)F)c1      T

Dear colleague, could you confirm whether Nc1c([N+](=O)[O-])ccc(Oc2ccccc2)c1Cl has relative growth at or above 1?
T

Do the same for CCCN(CCC)C(=O)SCc1ccccc1 please
T
